Below, each of the compounds is paired with its reported inhibition value.
Target: UniProtKB P14061
Sequence (P14061 whole entry): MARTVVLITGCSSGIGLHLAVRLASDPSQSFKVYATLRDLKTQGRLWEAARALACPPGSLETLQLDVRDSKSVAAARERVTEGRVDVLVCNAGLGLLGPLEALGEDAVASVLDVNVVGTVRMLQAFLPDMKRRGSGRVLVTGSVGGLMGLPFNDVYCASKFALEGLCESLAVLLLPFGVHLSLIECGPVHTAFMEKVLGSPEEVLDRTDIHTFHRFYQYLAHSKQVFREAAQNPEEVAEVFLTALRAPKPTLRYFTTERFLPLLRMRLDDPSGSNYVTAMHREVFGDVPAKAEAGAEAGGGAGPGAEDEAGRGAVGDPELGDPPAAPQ
Experiment: Inhibition of [3H]E1 binding to human placental 17beta-HSD1 at 1 uM after 20 mins

Here is how some compounds turned out for inhibition.
> print(dat)
                                  mol.smiles  result.value
 1            OCc1ccc(-c2ccc3c(O)cccc3c2)cc1           14%
 2     O=C(Nc1cccc(-c2ccc(CO)cc2)c1)c1ccccc1         < 10%
 3  COc1ccc(CC(=O)N(C)c2cccc(-c3ccc(CO)cc3)c2)cc1         < 10%
 4  COc1ccc(-c2cccc(N(C)C(=O)Cc3cccc(OC)c3)c2)cc1         < 10%
 5  O=[N+]([O-])c1ccc(-c2ccc3c(O)cccc3c2)cc1           15%
 6                 Oc1cccc2cc(-c3ccoc3)ccc12         < 10%
 7   CNS(=O)(=O)c1ccc(-c2ccc3c(O)cccc3c2)cc1           12%
 8      O=C(Nc1cccc(-c2ccc(O)cc2)c1)c1ccccc1         < 10%
 9           N#Cc1ccc(-c2ccc3c(O)cccc3c2)cc1           16%
10  COc1ccc(-c2cccc(N(C)C(=O)c3cccc(OC)c3)c2)cc1           16%

# query: inhibition of entry Oc1cccc(-c2ccc3cc(O)ccc3c2)c1
100%

# query: inhibition of entry CNC(=O)c1cccc(-c2ccc3c(O)cccc3c2)c1
< 10%

# query: inhibition of entry CC(=O)Nc1cccc(-c2ccc(CO)cc2)c1
< 10%
